biological target: human GLP-1 receptor (human, UniProt P43220); experiment: cell-based or functional assay
Starred links: 1 amine or outer side, 2 acyl side, 3 side chain; linkers in the order of their positions; H or OH if unused. Non-standard residues stand in square brackets, D forms with d. Groups on a side chain read outwards from the residue. No end group written: not given here. *: point of attachment. C20 diacid = O=C(O)CCCCCCCCCCCCCCCCCCC(=O)*; C18 diacid = O=C(O)CCCCCCCCCCCCCCCCC(=O)*; γGlu = O=C(O)[C@H](CCC(=O)[*:2])N[*:1]; αMeF = C[C@](N)(Cc1ccccc1)C(=O)O; AEEA = NCCOCCOCC(=O)O; Aib = CC(C)(N)C(=O)O
property label: hGLP-1R EC50 (pM)
Give just the number in pM; leave the unit off.

Consider the following illustrative entries.
binder	hGLP-1R EC50 (pM)
H[Aib]HGS[αMeF]TSDVSK[αMeF]LDSR[Aib]AK([AEEA-γGlu-C18 diacid])DFVESIANT-NH2 [Peptide 253]	75.5
H[Aib]HGS[αMeF]TSDVSK[αMeF]LDSRAAKD[αMeF]VQ[Aib]IANT-NH2 (not fully specified (residue 20)) [Peptide 232]	110
H[Aib]HGS[αMeF]TSDVSK[αMeF]LDSRAAKDFVQ[Aib]IANT-NH2 (not fully specified (residue 20)) [Peptide 222]	151
H[Aib]HGS[αMeF]TSDVSK[αMeF]LDSRAAK([AEEA-AEEA-γGlu-C18 diacid])DFVQ[Aib]IANT-NH2 [Peptide 287]	27.5

Now, please, on to the next binder.
Which hGLP-1R EC50 (pM) value is on record for H[Aib]HGS[αMeF]TSDVSK[αMeF]LDSRAAK([AEEA-C20 diacid])D[αMeF]VQ[Aib]IANT-NH2 [Peptide 278] ?
78.9

// provenance: patent US12630600B2
